The entries below come with measured Antiviral EC50 (ug/ml) Davis strain CMV values attached.
- System: Davis strain CMV
- experimental.protocol: Reduction of CMV-induced cytopathicity in HEL cells
- Format: cell-based, human cytomegalovirus (HCMV)
- assay.conditions: HEL cells, virus-induced cytopathicity after seven days
Respond numerically; units are µg/mL and should not be typed.

Below: 2 compounds and their reported Antiviral EC50 (ug/ml) Davis strain CMV.
CC(C)c1ccc(C(C)C)c(CS(=O)(=O)c2cccc[n+]2[O-])c1 = 3.2
CCc1ccc(CS(=O)(=O)c2cccc[n+]2[O-])cc1 = 10.0

Query :: Which measured Antiviral EC50 (ug/ml) Davis strain CMV belongs to O=[N+]([O-])c1cc(CS(=O)(=O)c2cccc[n+]2[O-])cc([N+](=O)[O-])c1 , tested on Davis strain CMV?
Result :: 5.0

Query :: Next up: Cc1ccc(C)c(C(C)S(=O)(=O)c2cccc(Cl)[n+]2[O-])c1 (stereo not drawn)
Result :: 9.1

* * *

// reported HIV-2 % Protection per item
- Tested on: HIV-2 (ROD)
- experimental.protocol: Inhibition of HIV-2 syncytium formation in CEM cells
- Type: cell-based
- assay.conditions: protection of CEM cells against virus-induced cytopathicity at the concentration in the previous column
API: value field is a number in %; no unit string.

Cc1ccc(C)c(C(C)S(=O)(=O)c2cccc[n+]2[O-])c1 (stereo not shown) [Compound 9] = 0.0
Cc1ccc(C(C)S(=O)(=O)c2c(C)ccc[n+]2[O-])c(C)c1 (racemic) [Compound 78] = 0.0
COc1ccc(CSc2cc(CC(C)C)cc[n+]2[O-])cc1 [Compound 134] = 0.0
Cc1ccc(C)c(CS(=O)(=O)c2cccc(Cl)[n+]2[O-])c1 [Compound 77] = 0.0
Cc1c(Cl)c(Cl)c(CS(=O)(=O)c2cccc[n+]2[O-])c(Cl)c1Cl [Compound 49] = 37.5
Cc1ccc(C)c(CSc2ccccn2)c1.Cl [Compound 157] = 37.5
Cc1ccc(C)c(C(C)S(=O)(=O)c2c(C)ccc[n+]2[O-])c1 (stereo not shown) [Compound 71] = 0.0
Cc1ccc(C)c(C(C)S(=O)(=O)c2cc(C)cc[n+]2[O-])c1 (stereo not shown) [Compound 108] = 37.5

Query :: Tell me the measured HIV-2 % Protection of COc1cc(C=C(C#N)Sc2cccc[n+]2[O-])cc(OC)c1OC [Compound 160] , please.
Result :: 0.0

Query :: Next: Cc1ccc(C)c(C(Cl)S(=O)(=O)c2cc(C)cc[n+]2[O-])c1 (stereo not shown) [Compound 74]
Result :: 0.0

Query :: Then Cc1ccc[n+]([O-])c1S(=O)(=O)Cc1ccccc1 [Compound 80] ?
Result :: 0.0

* * *

- System: MOLT-3 cells
- experimental.protocol: Toxicity in MOLT-3 cells, changes in cell morphology by microscopic examination
- Format: cell-based, human
- assay.conditions: Exp. 2
MIC (concentration causing minimal changes in cell morphology) values for the compounds below.
Quick note: give the figure in μg/ml, leave out the unit.

[O-][n+]1ccccc1[S+]([O-])Cc1ccccc1 (stereo not shown) [Compound 5, 2-(Benzylsulfinyl)-pyridine-N-oxide] = 100
O=S(=O)(Cc1ccccc1)c1cccc[n+]1[O-] [Compound 6, 2-(Benzylsulfonyl)-pyridine-N-oxide] = 100

Could you now consider this next compound?
Query :: Record request: MIC (concentration causing minimal changes in cell morphology) value, item Cc1ccc(C)c(CS(=O)(=O)c2cccc[n+]2[O-])c1
Result :: 100
